Test: Plasma vasopressin concentrations (ELISA) and non-compartmental pharmacokinetic analysis in neonatal piglets
Type: in vivo, piglet
Conditions: pig; 0.4IU/kg IV vasopressin (control), plasma, ELISA, mean (SD), n = 5; SD
Protocol: Piglets were randomized into four routes and various vasopressin doses: (1) IV vasopressin (0.4IU/kg; n = 5, control), (2) IO vasopressin (n = 5/dose; 0.2IU/kg, 0.4IU/kg, or 0.8IU/kg), (3) ETT vasopressin (n = 5/dose; 4IU/kg, 8IU/kg, or 16IU/kg), (4) IN vasopressin (n = 3/dose; 8IU/kg, 16IU/kg, or 32IU/kg). […] Demographics of study piglets were recorded. […] Concentrations of vasopressin were quantified using commercially available ELISA kits (K049-H1, Arbor Assays, Ann Arbor, Michigan, USA). […]
OBSERVED PROPERTY: Cmax (ng/mL)
Note: unit ng/mL is implicit; provide only the numeric part.

Task: What value of Cmax has been recorded for this entry: NC(=O)CC[C@@H]1NC(=O)[C@H](Cc2ccccc2)NC(=O)[C@H](Cc2ccc(O)cc2)NC(=O)[C@@H](N)CSSC[C@@H](C(=O)N2CCC[C@H]2C(=O)N[C@@H](CCCN=C(N)N)C(=O)NCC(N)=O)NC(=O)[C@H](CC(N)=O)NC1=O [vasopressin]
Result: 2.25

====

Test: Plasma vasopressin concentrations (ELISA) and non-compartmental pharmacokinetic analysis in neonatal piglets
Format: in vivo, piglet
Conditions: pig, endotracheal; 4IU/kg ETT vasopressin, plasma, ELISA, mean (SD), n = 5; p < 0.0001 vs IV; SD
OBSERVED PROPERTY: Cmax (ng/mL)
The figure you give is taken to be in ng/mL; do not add the unit.

Task: I'd like to know its Cmax. The compound in question is NC(=O)CC[C@@H]1NC(=O)[C@H](Cc2ccccc2)NC(=O)[C@H](Cc2ccc(O)cc2)NC(=O)[C@@H](N)CSSC[C@@H](C(=O)N2CCC[C@H]2C(=O)N[C@@H](CCCN=C(N)N)C(=O)NCC(N)=O)NC(=O)[C@H](CC(N)=O)NC1=O
Result: 0.958

====

Experiment: Plasma vasopressin concentrations (ELISA) and non-compartmental pharmacokinetic analysis in neonatal piglets
Format: in vivo, piglet
Conditions: pig, inhaled or intranasal; 16IU/kg IN vasopressin, plasma, ELISA, mean (SD), n = 3; p < 0.0001 vs IV; SD
OBSERVED PROPERTY: Cmax (ng/mL)
Only the number, expressed in ng/mL, is required.

Task: Endpoint output: Cmax of NC(=O)CC[C@@H]1NC(=O)[C@H](Cc2ccccc2)NC(=O)[C@H](Cc2ccc(O)cc2)NC(=O)[C@@H](N)CSSC[C@@H](C(=O)N2CCC[C@H]2C(=O)N[C@@H](CCCN=C(N)N)C(=O)NCC(N)=O)NC(=O)[C@H](CC(N)=O)NC1=O . Value?
Result: 0.399

====

Assay: Plasma vasopressin concentrations (ELISA) and non-compartmental pharmacokinetic analysis in neonatal piglets
Type: in vivo, piglet
Conditions: pig, inhaled or intranasal; 8IU/kg IN vasopressin, plasma, ELISA, mean (SD), n = 3; p < 0.0001 vs IV; SD
OBSERVED PROPERTY: Cmax (ng/mL)
# unit: ng/mL | format: bare number

Task: Can you look up the measured Cmax of NC(=O)CC[C@@H]1NC(=O)[C@H](Cc2ccccc2)NC(=O)[C@H](Cc2ccc(O)cc2)NC(=O)[C@@H](N)CSSC[C@@H](C(=O)N2CCC[C@H]2C(=O)N[C@@H](CCCN=C(N)N)C(=O)NCC(N)=O)NC(=O)[C@H](CC(N)=O)NC1=O for me?
Result: 0.384
